B1: EEHEE_rd3_1049 (parent)
chain: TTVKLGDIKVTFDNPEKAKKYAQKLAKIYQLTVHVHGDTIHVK

Variants of: B1
Experiment: folding stability dG (cDNA display proteolysis); higher = more stable
Conditions: PBS, room temperature
Definition: the class of an entry is the range in bucket A = under 1 kcal/mol, bucket B = from 1 kcal/mol up to 2 kcal/mol, bucket C = 2 kcal/mol and over that contains its folding stability dG.

Below are worked cases with known answers.
>  <biosequence>
TTVKLGDIKVTFDNPEKAKKYAQKLAKIYQLTFHVHGDTIHVK

>  <category_label>
bucket B

$$$$
>  <biosequence>
TTVKLGDIKVTFDNPEKAKKIAQKLAKIYQLTVHVHGDTIHVK

>  <category_label>
bucket A

$$$$

Prompt: Would you mind sorting TTVKLGDIKVTFDNPEPAKKYAQKLAKIYQLTVHVHGDTIHVK into the appropriate category?
Response: bucket A

Prompt: Which class holds TTVKLGDIKVTFDAPEKAKKYAQKLAKIYQLTVHVHGDTIHVK ?
Response: bucket B

Prompt: Category of TTVKLGDIKVTFLNPEKAKKYAQKLAKIYQLTVHVHGDTIHVK , please.
Response: bucket C

Prompt: Using the reported folding stability dG, which band applies to TTVKLGDIKVTFDKPEKAKKYAQKLAKIYQLTVHVHGDTIHVK ?
Response: bucket B

Values from the MegaScale stability set (Tsuboyama et al. 2023)
